Target: human FGFR2c on cells (human) (UniProt P21802)
Sequence (P21802 22-821): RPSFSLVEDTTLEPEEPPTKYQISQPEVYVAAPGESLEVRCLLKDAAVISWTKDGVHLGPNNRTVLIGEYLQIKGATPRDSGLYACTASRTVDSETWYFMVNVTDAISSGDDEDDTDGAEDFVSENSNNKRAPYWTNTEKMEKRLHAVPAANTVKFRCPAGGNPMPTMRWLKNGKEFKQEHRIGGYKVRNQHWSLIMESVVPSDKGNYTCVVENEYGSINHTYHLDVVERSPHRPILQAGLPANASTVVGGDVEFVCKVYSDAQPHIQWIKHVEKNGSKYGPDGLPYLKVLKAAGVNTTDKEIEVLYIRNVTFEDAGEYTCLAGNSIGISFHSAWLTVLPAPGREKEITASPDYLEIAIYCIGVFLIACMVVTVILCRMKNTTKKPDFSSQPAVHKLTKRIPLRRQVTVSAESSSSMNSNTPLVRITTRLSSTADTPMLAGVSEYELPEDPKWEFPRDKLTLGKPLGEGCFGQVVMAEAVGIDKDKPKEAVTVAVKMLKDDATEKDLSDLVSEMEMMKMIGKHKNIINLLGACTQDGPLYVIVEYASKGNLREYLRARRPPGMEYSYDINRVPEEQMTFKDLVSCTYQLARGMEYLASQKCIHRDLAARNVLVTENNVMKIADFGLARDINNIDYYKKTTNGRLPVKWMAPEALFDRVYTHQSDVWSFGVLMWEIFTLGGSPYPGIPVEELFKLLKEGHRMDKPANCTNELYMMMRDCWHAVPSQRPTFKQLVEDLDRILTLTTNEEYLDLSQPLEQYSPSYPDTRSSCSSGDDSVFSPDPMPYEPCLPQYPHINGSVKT
Test: flow cytometry, Expi293 cells overexpressing human FGFR2c
reported.metric: Emax (MFI)
Field: numeric (MFI). Do not append units.

Consider the worked cases shown below.
- binder: "BGAm1371 (antibody, V domains shown) VH: QVQLKQSGAELVKPGASVKLSCTASGFNIKDTYIHWVKQRPEQGLEWIGRIDPANGNTMFASEFQGKATITAYTSSNTAYMQLSSLTSGDTAVYYCARSKIHYDYDEGFAYWGQGTLVTVSS VL: NIVLTQSPPSLAVSLGQRATVSCRASESVDDYGYSFLHWYQQKPGQPPKLLIYRASNLESGIPARFSGSGSRTDFTLTINPVETDDVATYYCQQSNQNPRTFGGGTKLEIK"
  reported.metric: "Emax (MFI)"
  readout.value: 23100
- binder: "BGAh9239 (antibody, human IgG1, kappa, V domains shown) VH: QVQLVQSGAEVKKPGSSVKVSCKASGYTFSIYWLNWVRQAPGQGLEWMGQIYPENADTNYSGKFKGRVTITADKSTSTAYMELSSLRSEDTAVYFCARGGFDYWGQGTLVTVSS VL: DIQMTQSPSSLSASVGDRVTITCRASENIYSNLAWYQQKPGKAPKLLIYTATNLAEGVPSRFSGSGSGTDFTLTISSLQPEDFATYYCQHFYGILYTFGQGTRLEIKR"
  reported.metric: "Emax (MFI)"
  readout.value: 23800
- binder: "BGAm1823 (antibody, V domains shown) VH: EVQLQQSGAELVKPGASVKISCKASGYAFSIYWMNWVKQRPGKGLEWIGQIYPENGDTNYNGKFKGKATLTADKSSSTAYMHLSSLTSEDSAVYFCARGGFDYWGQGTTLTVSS VL: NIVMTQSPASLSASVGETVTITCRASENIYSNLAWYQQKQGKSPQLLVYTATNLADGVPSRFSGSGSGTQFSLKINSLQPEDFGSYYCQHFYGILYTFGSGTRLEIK"
  reported.metric: "Emax (MFI)"
  readout.value: 22600

We now examine a further binder.
Given the binder BGAh9179 (antibody, human IgG1, kappa, V domains shown) VH: QVQLVQSGAEVKKPGASVKVSCKASGYTITDTYIHWVRQAPGQGLEWMGRIDPAEGNTMFASEFQGRVTMTADTSTSTVYMELSSLRSEDTAVYYCARSKIHYDYDEGFAYWGQGTLVTVSS VL: DIVLTQSPDSLAVSLGERATINCRASESVDDYGYSFLHWYQQKPGQPPKLLIYRASNLESGVPDRFSGSGSGTDFTLTISSLQAEDVAVYYCQQSNQNPRTFGGGTKVEIKR , what is its reported Emax (MFI)?
21700
